# subject_of_test: CYP1B1 (Homo sapiens, UniProt Q16678)
# Sequence (Q16678 whole entry): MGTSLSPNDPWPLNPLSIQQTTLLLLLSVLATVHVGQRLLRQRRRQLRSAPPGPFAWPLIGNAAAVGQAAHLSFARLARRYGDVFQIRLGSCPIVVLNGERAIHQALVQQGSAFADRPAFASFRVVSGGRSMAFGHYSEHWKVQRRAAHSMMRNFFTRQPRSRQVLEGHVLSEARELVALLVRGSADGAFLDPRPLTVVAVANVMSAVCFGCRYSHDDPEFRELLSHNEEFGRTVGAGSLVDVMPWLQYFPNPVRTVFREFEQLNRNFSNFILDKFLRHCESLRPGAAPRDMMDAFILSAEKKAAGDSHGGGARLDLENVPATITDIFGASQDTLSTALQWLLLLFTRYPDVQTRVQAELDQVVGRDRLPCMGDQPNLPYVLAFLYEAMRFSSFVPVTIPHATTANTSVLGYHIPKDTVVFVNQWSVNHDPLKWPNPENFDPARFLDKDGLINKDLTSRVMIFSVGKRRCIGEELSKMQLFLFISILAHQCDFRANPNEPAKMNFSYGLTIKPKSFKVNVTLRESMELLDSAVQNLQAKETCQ
# assay_overview: Potency index, ratio of alpha-naphthoflavone IC50 to compound IC50 for inhibition of recombinant human CYP1B1 expressed in supersomes coexpressing P450 reductase
# details: read-out: Ratio IC50
readout_label: selectivity ratio

* C[C@]12CC[C@@H]3c4cc(-c5cccnc5)c(O)cc4CC[C@H]3[C@@H]1CC[C@@H]2O | 7.5

Noted for "C[C@]12CC[C@@H]3c4cc(-c5ccncc5)c(O)cc4CC[C@H]3[C@@H]1CC[C@@H]2O" : its selectivity ratio reads 2.5

###

# assay_overview: AUC (0 to 24 hrs) in rat plasma at 2 mg/kg, sc administered as single dose measured at 2 hrs post dose by LC-MS analysis
# Type: ADME, organism-based
# Design: time < 24 hr, dose 2 mg/kg, route subcutaneous
readout_label: AUC(0-t) at 24 h (ng·h/mL)
Please state the figure in ng·h/mL; there is no need to write the unit.

Noted for "C[C@]12CC[C@@H]3c4cc(-c5cccnc5)c(O)cc4CC[C@H]3[C@@H]1CC[C@@H]2O" : its AUC(0-t) at 24 h reads 12.8
